We begin with a simple list: items and their reported growth.
- Test system: HCT-116 colon
- ASSAY_EXPLANATION: NCI-60 one-dose screen, 48 h (100 = growth as untreated, 0 = no growth, -100 = all killed)
- SETTINGS: 10 µM unless noted
About 83,000 compounds went through this panel and 20% of them were active in at least one assay; those are over-represented in the sample as a whole.
METRIC: growth (%)

* CC1=C(O)C(=O)CC1 | 105
* O=C1OC(/C=C/c2ccccc2)=NC/1=C/c1ccccc1[N+](=O)[O-] | 104
* C=C1C(=O)O[C@H]2[C@H]1CC/C(COC(=O)NCc1c[nH]c3ccc(OC)cc13)=C\CC[C@@]1(C)O[C@@H]21 | -79.4
* CC1OC(n2c3ccccc3c3c4c(c5c6ccccc6[nH]c5c32)C(=O)N(CCN2CCOCC2)C4=O)CC(O)C1O (stereo not drawn) | 24.3
* COc1ccc(-c2cc(-c3ccc(OC)cc3)c3sc(=O)[nH]c3n2)cc1 | 96.8
* OC(COCc1ccccc1)COCc1ccccc1 | 99
* CCN1C(=O)C(C)C=C(C)C=C1C (stereo not drawn) | 112
* CC(C)(C)c1cc(C[P+](c2ccccc2)(c2ccccc2)c2ccccc2)cc(C(C)(C)C)c1O | 5.83

* * *

- System: NCI-H226 lung
- ASSAY_EXPLANATION: NCI-60 one-dose screen, 48 h
- SETTINGS: 10 µM unless noted
The panel holds about 83,000 compounds, 20% with a hit somewhere; the sample as a whole holds those more often. Activity calls are given as the source filed them. The calls were made as follows: active = growth percent below 10; inactive = the rest.
Classes used: active, inactive

• O=c1c2cc(Br)cc(Br)c2nc(-c2ccc(Cl)cc2)n1/N=C/c1cccc(F)c1 = inactive
• CCCCCc1c(C)[nH]c(/C=C2\N=C(c3ccc[nH]3)C=C2Oc2ccc(OC)cc2)c1C = active
• CS(=O)(=O)c1ccc(C(=O)N/N=C/c2ccccc2O)cc1 = inactive
• COc1ccc(/C=C/c2nc3ccccc3c(=O)n2-c2ccc(C#Cc3ccc(C(C)(C)C)cc3)cc2C)c(OC)c1 = inactive

* * *

- System: LOX IMVI melanoma
- ASSAY_EXPLANATION: NCI-60 one-dose screen, 48 h (100 = growth as untreated, 0 = no growth, -100 = all killed)
- SETTINGS: 10 µM unless noted
The panel holds about 83,000 compounds, 20% with a hit somewhere; the sample as a whole holds those more often.
METRIC: growth (%)

• COc1ccc(CC2c3cc(OC)c(OC)cc3CC[N+]2(C)CCC(=O)OCCCCCOC(=O)CC[N+]2(C)CCc3cc(OC)c(OC)cc3C2Cc2ccc(OC)c(OC)c2)cc1OC (centres undefined) = 81
• CC(C)(C)c1nn(-c2ccccc2)c2c1C(=O)CSC(c1ccccc1Cl)N2 (centres undefined) = 35.5
• O=C(Nc1ccc(-n2ccc3c(NC(=O)c4ccccc4)nccc32)cc1)c1ccc(N2CCOCC2)c(C(F)(F)F)c1 = 13.4
• Cc1ccc(NC(=O)c2sc3nc4c(cc3c2N)C(=O)CCC4)cc1Cl = 99.2

* * *

- Test system: M14 melanoma
- ASSAY_EXPLANATION: NCI-60 one-dose screen, 48 h (100 = growth as untreated, 0 = no growth, -100 = all killed)
- SETTINGS: 10 µM unless noted
Compounds without any hit were thinned out: in the full panel of roughly 83,000, 20% have a hit. The source made the active and inactive calls. How the source made its calls: active means growth percent below 10; inactive means the rest.
We begin with a simple list: items and their reported growth.
METRIC: growth

* COc1cccc(-c2nc3sccn3c2-c2ccnc(NCCN3CCCNS3(=O)=O)n2)c1 | 18% (inactive)
* Cn1c(=O)c2c(nc(N/N=C/c3ccccc3Cl)n2C)n(C)c1=O | 103% (inactive)
* O=C(Cc1ccc([N+](=O)[O-])cc1)Oc1ccccc1 | 106% (inactive)

* * *

We begin with a simple list: items and their reported growth.
- System: NCI-H226 lung
- ASSAY_EXPLANATION: NCI-60 one-dose screen, 48 h (100 = growth as untreated, 0 = no growth, -100 = all killed)
- SETTINGS: 10 µM unless noted
About 83,000 compounds went through this panel and 20% of them were active in at least one assay; those are over-represented in the sample as a whole. Activity calls are given as the source filed them. How the source made its calls: active means growth percent below 10; inactive means the rest.
METRIC: growth

* CCCCc1nc(Cl)c(C2CC(c3ccc(S(N)(=O)=O)cc3)=NN2c2ccc(C#N)cc2)[nH]1 (stereo not given) | 79.6% (inactive)
* COc1cc(Cl)cc(-c2nn(C(=O)NCCN3CCOCC3)cc2-c2ccncc2)c1 | 99.7% (inactive)
* CSC1=N/C(=C\c2cccc(OCc3ccc(Cl)cc3)c2)C(=O)N1 | 75% (inactive)
* O=C1Nc2ccc(Br)cc2/C1=N/c1nc(-c2ccccc2)cs1 | 75.7% (inactive)
* NS(=O)(=O)c1ccc(CCn2c(SCC(=O)N/N=C/c3cc4ccccc4[nH]3)nc3ccccc3c2=O)cc1 | 76.6% (inactive)
* C[C@H](NC(=O)c1snnc1C1CC1)c1c(F)cccc1Cl | 96.1% (inactive)
* Nc1c(C(=O)C[C@@H](N)CO)ccc2c1C(=O)CCO2 | 76.3% (inactive)
* CN(C)CC(=O)c1ccc2cc(Br)c3ccccc3c2c1 | 88.1% (inactive)
* CC(C)CC(=O)C(CCc1ccccn1)C(C)C (stereo not given) | 97.9% (inactive)
* N=C(N)c1ccc(-c2ccc(-c3cccs3)s2)cc1F | -65.6% (active)
* COc1cccc(N2CCN(c3ncnc4cc[nH]c34)CC2)c1 | 55.1% (inactive)
* N/C(=C\C(=O)n1nc(-c2ccccc2)cc1N)c1ccccc1 | 73.4% (inactive)
* COc1ccc(C(=O)C(CN(C)C)c2ccc(OC)cc2)cc1 (stereo not given) | 84.2% (inactive)
* CC(C)CCSc1nc(Nc2ccccc2)c(C#N)c(-c2ccc(F)cc2)n1 | 90.7% (inactive)
* COc1ccccc1/C=C/C(=O)CCC(=O)O | 104% (inactive)
* Cn1c(-c2ccccc2)cc(=O)n1-c1ccccc1 | 102% (inactive)
* Cc1ccsc1C(=O)CC(=O)C(F)(F)C(F)(F)C(F)(F)F | 93.1% (inactive)
* CC[C@]1(O)C[C@H]2CN(CCc3c([nH]c4ccccc34)C(C(=O)OC)(c3cc4c(cc3OC)N(C)[C@H]3[C@@](O)(C(=O)OC)[C@H](OC(C)=O)[C@]5(CC)[C@@H]6C[C@@H]6CN6CC[C@]43[C@@H]65)C2)C1 (stereo not given in full) | -25.3% (active)
* Cc1ccc(C)c(NC(=O)c2sc3c(=O)[nH]cnc3c2C)c1 | 106% (inactive)
* CC(=O)NC1C(O[C@H]2C[C@H]3[C@@H]4CC=C5C[C@@H](O)CC[C@]5(C)[C@H]4CC[C@]3(C)[C@H]2[C@H](C)C(=O)CCC(C)C)OCC(O)C1O (stereo not given in full) | 60.6% (inactive)
* CC(SC(C)C(=O)N/N=C/c1cccc(Cl)c1)C(=O)N/N=C\c1cccc(Cl)c1 (stereo not given) | 93.2% (inactive)
* COc1ccc(C2c3cccn3-c3ccccc3N2C(C)=O)cc1 (stereo not given) | 97.3% (inactive)
* CC(C)c1nc2ccccc2n1CC(=O)N/N=C/c1cccc(O)c1 | 105% (inactive)
* CCOC(=O)Cn1c(-c2nonc2NC(=O)c2ccccc2F)nc2ccccc21 | 62.3% (inactive)
* Nc1nc(N)c2cc(NCc3ccc(Cl)c(Cl)c3)ccc2n1 | -74.8% (active)
* C=C1C[C@@]2(C)C(CC[C@]3(C)C2CC=C2C4CC(C)(C)C[C@@H](OC(=O)/C(C)=C\C)[C@]4(C(=O)O)CC[C@]23C)C(C)(C)C1=O (stereo not given in full) | -72.8% (active)
* N=C(N)c1ccc(NCCNc2ccc(C(=N)N)cc2)cc1 | 62.6% (inactive)
* N/C(=N\O)c1ncc(-c2ccc(C(F)(F)F)cc2)c(NC2CCCCCC2)n1 | -42.4% [100 µM] (active)
* Cc1ccc2c(C)c3c(ccc4ccccc43)c[n+]2c1 | 83.7% (inactive)
* C=C1C(=O)O[C@H]2[C@H]1CC/C(COC(=O)N[C@@H](Cc1c[nH]c3ccccc13)C(=O)OC)=C\CC[C@@]1(C)O[C@@H]21 | 58.4% (inactive)

* * *

We begin with a simple list: items and their reported growth.
- System: T-47D breast
- ASSAY_EXPLANATION: NCI-60 one-dose screen, 48 h (100 = growth as untreated, 0 = no growth, -100 = all killed)
- SETTINGS: 10 µM unless noted
- Procedure: Growth inhibition of the T-47D human tumor cell line is measured as a screen for anti-cancer activity. Cells are grown in 96 well plates and exposed to the test compound for 48 hours. Compounds are tested at a single concentration, which is 10^-5 M for most compounds. The reported endpoint is percent growth (GI% or GIPRCNT), where numbers from 0 - 100% represent growth inhibition, and numbers from -100% - 0 represent cell death. For example, a value of 40 represents 60% growth inhibition. […]
About 83,000 compounds went through this panel and 20% of them were active in at least one assay; those are over-represented in the sample as a whole.
METRIC: growth (%)

• O=c1c2cc(Cl)ccc2oc2ccc(OCCCCCN3CCCCC3)cc12 = 60.1
• CN1C2CCC1/C(=C\c1ccc(Cl)cc1)C(=O)/C2=C/c1ccc(Cl)cc1 = 59.7
• CN1CCCN(CCNc2nccc(-c3c(-c4cccc(O)c4)nc4sccn34)n2)S1(=O)=O = 60.7
